Below is a list of entries, each paired with its recorded STK11 functional score value.
B1: library; numbered along this chain (parent)
chain: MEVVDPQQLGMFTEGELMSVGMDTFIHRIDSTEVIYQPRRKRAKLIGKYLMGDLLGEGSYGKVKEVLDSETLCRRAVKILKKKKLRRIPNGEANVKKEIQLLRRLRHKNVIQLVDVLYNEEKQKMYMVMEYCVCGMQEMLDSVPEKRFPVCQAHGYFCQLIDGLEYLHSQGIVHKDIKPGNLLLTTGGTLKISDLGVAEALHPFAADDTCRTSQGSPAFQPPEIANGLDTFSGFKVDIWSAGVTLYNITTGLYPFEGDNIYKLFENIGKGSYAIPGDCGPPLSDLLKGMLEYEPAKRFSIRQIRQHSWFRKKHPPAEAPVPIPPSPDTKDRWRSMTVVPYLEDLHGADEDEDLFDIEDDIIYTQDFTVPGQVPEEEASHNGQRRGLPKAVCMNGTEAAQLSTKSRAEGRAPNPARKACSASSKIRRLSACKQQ

Variants of: B1
Test: STK11 functional score (HeLa growth suppression), rescaled enrichment; synonymous median = 1, nonsense median = 0 (normalised score)
Details: with HeLa; variant type: missense

{"VARIANT_CODE": "E65Q", "STK11 functional score": 1.18}
{"VARIANT_CODE": "E57I", "STK11 functional score": 1.15}
{"VARIANT_CODE": "K423T", "STK11 functional score": 1.57}
{"VARIANT_CODE": "T230V", "STK11 functional score": 1.5}
{"VARIANT_CODE": "G279P", "STK11 functional score": 1.17}
{"VARIANT_CODE": "Q37N", "STK11 functional score": 0.934}
{"VARIANT_CODE": "I192W", "STK11 functional score": 0.0777}
{"VARIANT_CODE": "K108D", "STK11 functional score": 0.31}
{"VARIANT_CODE": "R297C", "STK11 functional score": -0.195}
{"VARIANT_CODE": "I29N", "STK11 functional score": 1.49}
{"VARIANT_CODE": "N412H", "STK11 functional score": 1.1}
{"VARIANT_CODE": "D327G", "STK11 functional score": 0.999}
{"VARIANT_CODE": "I88T", "STK11 functional score": 1.48}
{"VARIANT_CODE": "A206E", "STK11 functional score": 0.305}
{"VARIANT_CODE": "Q399E", "STK11 functional score": 1.47}
{"VARIANT_CODE": "T71E", "STK11 functional score": 1.37}
{"VARIANT_CODE": "F298L", "STK11 functional score": 0.608}
{"VARIANT_CODE": "C418Y", "STK11 functional score": 1.6}
{"VARIANT_CODE": "G394A", "STK11 functional score": 1.32}
{"VARIANT_CODE": "F255T", "STK11 functional score": 0.94}
{"VARIANT_CODE": "F231A", "STK11 functional score": 1.61}
{"VARIANT_CODE": "T189W", "STK11 functional score": 1.2}
{"VARIANT_CODE": "S213V", "STK11 functional score": 1.02}
{"VARIANT_CODE": "T209I", "STK11 functional score": 0.703}
{"VARIANT_CODE": "F204I", "STK11 functional score": 1.23}
{"VARIANT_CODE": "S142V", "STK11 functional score": 1.51}
{"VARIANT_CODE": "D53L", "STK11 functional score": 0.555}
{"VARIANT_CODE": "D348M", "STK11 functional score": 0.896}
{"VARIANT_CODE": "G188I", "STK11 functional score": 1.04}
{"VARIANT_CODE": "A398N", "STK11 functional score": 1.15}
{"VARIANT_CODE": "V173H", "STK11 functional score": 0.45}
{"VARIANT_CODE": "E145C", "STK11 functional score": 1.41}
{"VARIANT_CODE": "F204W", "STK11 functional score": 1.3}
{"VARIANT_CODE": "L341G", "STK11 functional score": 1.46}
{"VARIANT_CODE": "Q220T", "STK11 functional score": 1.67}
{"VARIANT_CODE": "E98H", "STK11 functional score": 0.617}
{"VARIANT_CODE": "I267W", "STK11 functional score": 0.777}
{"VARIANT_CODE": "T363C", "STK11 functional score": 1.33}
{"VARIANT_CODE": "V368W", "STK11 functional score": 0.786}
